- assay_text: Rat pharmacokinetics (oral and IV), plasma by LC-MS/MS
- Assay type: in vivo, rats (Wistar rat strains)
- measurement_context: oral, 100 mg/kg, Formulation 1: Polysorbate 80 (10% v/v) + MC (0.5% w/v), Compound 1C prepared by Method 2
readout: Cmax (µM)
Express the result in µM but write the number alone.

Lookup: For the molecule "C[C@]1(O)C(=O)N(c2cncc(Cc3n[nH]c(=O)c4ccccc34)c2)c2ccccc21.Cc1ccc(S(=O)(=O)O)cc1" , give its reported Cmax.
Found: 10.5

* * *

- assay_text: Rat pharmacokinetics (oral and IV), plasma by LC-MS/MS
- Format: in vivo, rats (Wistar rat strains)
- measurement_context: oral, 100 mg/kg, Formulation 1: Polysorbate 80 (10% v/v) + MC (0.5% w/v), Compound 1C prepared by Method 1
readout: Cmax
Answer format reminder: number followed by unit.

Lookup: For the molecule "C[C@]1(O)C(=O)N(c2cncc(Cc3n[nH]c(=O)c4ccccc34)c2)c2ccccc21.Cc1ccc(S(=O)(=O)O)cc1" , give its reported Cmax.
Found: 11.9 µM

* * *

- assay_text: Rat pharmacokinetics (oral and IV), plasma by LC-MS/MS
- Format: in vivo, rats (Wistar rat strains)
- measurement_context: Wistar, plasma, oral, 100 mg/kg, Formulation 1: Polysorbate 80 (10% v/v) + MC (0.5% w/v), Compound 1 prepared by Method 2, Compound 1D prepared by Method 2, read-out: AUC0-24
readout: AUC(0-t)
Answer format reminder: number followed by unit.

Lookup: For the compound "C[C@]1(O)C(=O)N(c2cncc(Cc3n[nH]c(=O)c4ccccc34)c2)c2ccccc21.Cl" , give its reported AUC(0-t).
Found: 23.3 µM·h

Lookup: For the compound "C[C@]1(O)C(=O)N(c2cncc(Cc3n[nH]c(=O)c4ccccc34)c2)c2ccccc21" , give its reported AUC(0-t).
Found: 7.81 µM·h

* * *

- assay_text: Rat pharmacokinetics (oral and IV), plasma by LC-MS/MS
- Type: in vivo, rats (Wistar rat strains)
- measurement_context: oral, 100 mg/kg, Formulation 2: PG (40% v/v) + 60% MC (0.5% w/v), Compound 1D prepared by Method 3
readout: Cmax (µM)
Express the result in µM but write the number alone.

Lookup: For the molecule CS(=O)(=O)O.C[C@]1(O)C(=O)N(c2cncc(Cc3n[nH]c(=O)c4ccccc34)c2)c2ccccc21 [Compound 1D] , give its reported Cmax.
Found: 53.7

* * *

- assay_text: Mice pharmacokinetics (IV and oral), plasma by LC-MS/MS
- Format: in vivo, mice (BALB/c mice)
- measurement_context: IV, 1 mg/kg
readout: C0 (µM)
Express the result in µM but write the number alone.

Lookup: For the compound "CS(=O)(=O)O.C[C@]1(O)C(=O)N(c2cncc(Cc3n[nH]c(=O)c4ccccc34)c2)c2ccccc21" , give its reported C0.
Found: 3.12

* * *

- assay_text: Mice pharmacokinetics (IV and oral), plasma by LC-MS/MS
- Type: in vivo, mice (BALB/c mice)
- measurement_context: oral, 10 mg/kg
readout: Cmax
Answer format reminder: number followed by unit.

Lookup: For the compound "CS(=O)(=O)O.C[C@]1(O)C(=O)N(c2cncc(Cc3n[nH]c(=O)c4ccccc34)c2)c2ccccc21" , give its reported Cmax.
Found: 7.62 µM

* * *

- assay_text: Rat pharmacokinetics (oral and IV), plasma by LC-MS/MS
- Type: in vivo, rats (Wistar rat strains)
- measurement_context: oral, 100 mg/kg, Formulation 1: Polysorbate 80 (10% v/v) + MC (0.5% w/v), Compound 1 prepared by Method 2, Compound 1D prepared by Method 2, 100 mg/kg
- Method: The oral bioavailability of Compound 1 and its salts were evaluated in rats. The protocol for the pharmacokinetic (PK) studies in rats is provided below. Formulation 1: Polysorbate 80 (10% v/v)+Methyl Cellulose (MC) (0.5% w/v) • 1. 200 mg^#of the test compound was weighed and transferred into a mortar. • 2. 1.0 mL of polysorbate 80 (10% v/v of the final suspension) was added to the mortar and the test item was triturated to afford a smooth paste. • 3. […]
Cmax reference
Express the result in µM but write the number alone.

Lookup: For the compound "CS(=O)(=O)O.C[C@]1(O)C(=O)N(c2cncc(Cc3n[nH]c(=O)c4ccccc34)c2)c2ccccc21" , give its reported Cmax.
Found: 13

The record that follows has no Cmax shown yet.
Lookup: For the compound "C[C@]1(O)C(=O)N(c2cncc(Cc3n[nH]c(=O)c4ccccc34)c2)c2ccccc21.O=S(=O)(O)c1ccccc1" , give its reported Cmax.
Found: 17.2

* * *

- assay_text: Dog pharmacokinetics (IV and oral), plasma by LC-MS/MS
- Format: in vivo, dogs (beagle, non-naïve)
- measurement_context: oral, 20 mg/kg
readout: Cmax (µM)
Express the result in µM but write the number alone.

Lookup: For the molecule "CS(=O)(=O)O.C[C@]1(O)C(=O)N(c2cncc(Cc3n[nH]c(=O)c4ccccc34)c2)c2ccccc21" , give its reported Cmax.
Found: 22.9

* * *

- assay_text: Rat pharmacokinetics (oral and IV), plasma by LC-MS/MS
- Format: in vivo, rats (Wistar rat strains)
- measurement_context: Wistar, plasma, oral, 100 mg/kg, Formulation 1: Polysorbate 80 (10% v/v) + MC (0.5% w/v), Compound 1 prepared by Method 2, Compound 1D prepared by Method 2, read-out: Tmax
- Procedure: The oral bioavailability of Compound 1 and its salts were evaluated in rats. The protocol for the pharmacokinetic (PK) studies in rats is provided below. Formulation 1: Polysorbate 80 (10% v/v)+Methyl Cellulose (MC) (0.5% w/v) • 1. 200 mg^#of the test compound was weighed and transferred into a mortar. • 2. 1.0 mL of polysorbate 80 (10% v/v of the final suspension) was added to the mortar and the test item was triturated to afford a smooth paste. • 3. […]
readout: Tmax (min)
Express the result in min but write the number alone.

Lookup: For the compound "C[C@]1(O)C(=O)N(c2cncc(Cc3n[nH]c(=O)c4ccccc34)c2)c2ccccc21.Cl" , give its reported Tmax.
Found: 15

The record that follows has no Tmax shown yet.
Lookup: For the compound "C[C@]1(O)C(=O)N(c2cncc(Cc3n[nH]c(=O)c4ccccc34)c2)c2ccccc21" , give its reported Tmax.
Found: 30

* * *

- assay_text: Mice pharmacokinetics (IV and oral), plasma by LC-MS/MS
- Assay type: in vivo, mice (BALB/c mice)
- measurement_context: IV, 1 mg/kg
readout: Cmax (nM)
Express the result in nM but write the number alone.

Lookup: For the compound "CS(=O)(=O)O.C[C@]1(O)C(=O)N(c2cncc(Cc3n[nH]c(=O)c4ccccc34)c2)c2ccccc21" , give its reported Cmax.
Found: 2870

* * *

- assay_text: Rat pharmacokinetics (oral and IV), plasma by LC-MS/MS
- Assay type: in vivo, rats (Wistar rat strains)
- measurement_context: oral, 100 mg/kg, Formulation 2: PG (40% v/v) + 60% MC (0.5% w/v), Compound 1D prepared by Method 2
readout: Cmax (µM)
Express the result in µM but write the number alone.

Lookup: For the molecule "CS(=O)(=O)O.C[C@]1(O)C(=O)N(c2cncc(Cc3n[nH]c(=O)c4ccccc34)c2)c2ccccc21" , give its reported Cmax.
Found: 55.6

* * *

- assay_text: Dog pharmacokinetics (IV and oral), plasma by LC-MS/MS
- Format: in vivo, dogs (beagle, non-naïve)
- measurement_context: IV, 1 mg/kg
- Method: Protocol: All animals (mice (BALB/c mice), rats (Wistar rat strains), and dogs (beagle, non-naïve)) were fasted overnight (12 hours) before dosing and continued till 4.0 hours after administration of test item. […] The plasma concentrations of test item in all samples were analysed by LC-MS/MS method Pharmacokinetic parameters viz. […]
readout: Cmax

Lookup: For the molecule "CS(=O)(=O)O.C[C@]1(O)C(=O)N(c2cncc(Cc3n[nH]c(=O)c4ccccc34)c2)c2ccccc21" , give its reported Cmax.
Found: 3.47 µM

* * *

- assay_text: Rat pharmacokinetics (oral and IV), plasma by LC-MS/MS
- Format: in vivo, rats (Wistar rat strains)
- measurement_context: Wistar, plasma, oral, 100 mg/kg, Formulation 1: Polysorbate 80 (10% v/v) + MC (0.5% w/v), Compound 1 prepared by Method 2, Compound 1D prepared by Method 2
readout: Cmax (µM)
Express the result in µM but write the number alone.

Lookup: For the compound C[C@]1(O)C(=O)N(c2cncc(Cc3n[nH]c(=O)c4ccccc34)c2)c2ccccc21 [Compound 1] , give its reported Cmax.
Found: 2.56

The record that follows has no Cmax shown yet.
Lookup: For the compound C[C@]1(O)C(=O)N(c2cncc(Cc3n[nH]c(=O)c4ccccc34)c2)c2ccccc21.Cl [Compound 1A] , give its reported Cmax.
Found: 4.38

* * *

- assay_text: Rat pharmacokinetics (oral and IV), plasma by LC-MS/MS
- Type: in vivo, rats (Wistar rat strains)
- measurement_context: IV, 1 mg/kg
readout: C0

Lookup: For the compound CS(=O)(=O)O.C[C@]1(O)C(=O)N(c2cncc(Cc3n[nH]c(=O)c4ccccc34)c2)c2ccccc21 [Compound 1D] , give its reported C0.
Found: 5.25 µM

src = patent US20240199582A1
